The measurements presented in this section are drawn from paper PMC5540273.

Property: %Inh; scope: individual molecules
- Test system: PIK3C2B;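 note: KINOMEscan kinase panel screen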
- Conditions Used: concentration: 1 μM,replicates: in singlicate; n = 1
API: value field is a number in %; no unit string.

C[C@@H]1CNc2c(sc3ccc4nc(-c5ccncc5)ccc4c23)C(=O)N1; 0
CN1CCN(CCNc2nc3cc(Oc4ccc(NC(=O)Nc5cc(C(F)(F)F)ccc5F)cc4)ccc3[nH]2)CC1.Cl.Cl; 14
CSc1nccc(-c2c(-c3ccc(F)cc3)ncn2CCCN2CCOCC2)n1.Cl; 0
CN(c1ccc2c(c1)nc(NCc1ccc(F)cc1)n2C)c1ccnc(Nc2ccc(CS(C)(=O)=O)cc2)n1.Cl; 0
COC(=O)c1cccc(NC(=O)NC2CCN(c3ccnc(Nc4cc(OC)c(OC)c(OC)c4)n3)C2)c1 (stereo not shown); 0
Cl.Cl.NC[C@H](CC1CCCCC1)NC(=O)c1ccc(-c2ccnc3[nH]ccc23)s1; 0
O=C(NOCC1CC1)c1cc(Br)c(F)c(F)c1Nc1ccc(I)cc1Cl; 0
O=C(Nc1cccc(Oc2ccc3nccn3n2)c1)Nc1cccc(C(F)(F)F)c1; 12

Looking up `Cc1ccc(Nc2ccnc(Nc3ccc4c(c3)CS(=O)(=O)C4)n2)cc1O.Cl` , I found its %Inh recorded as 4

Looking up `C[C@@H](Oc1cc(-n2cnc3cc(-c4cnn(C)c4)ccc32)sc1C(N)=O)c1ccccc1Cl` , I found its %Inh recorded as 0
